Value source: patent EP4635565A1

# STUDY TARGET: hPPARβ/δ (Homo sapiens, UniProt Q03181)
# Sequence (Q03181 171-441): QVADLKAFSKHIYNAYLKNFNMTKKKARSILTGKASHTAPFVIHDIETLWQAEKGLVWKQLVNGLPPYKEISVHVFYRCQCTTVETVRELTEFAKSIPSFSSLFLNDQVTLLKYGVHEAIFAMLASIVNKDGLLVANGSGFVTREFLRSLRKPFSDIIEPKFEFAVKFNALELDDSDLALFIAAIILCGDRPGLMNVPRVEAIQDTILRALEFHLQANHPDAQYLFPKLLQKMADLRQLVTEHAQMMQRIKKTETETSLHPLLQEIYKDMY
# ASSAY METHOD TEXT: PPAR transactivation assay, human chimeric PPAR/Gal4 reporter luciferase system in Cos-7 cells (PPARβ/δ)
# Format: cell-based
# CONDITIONS: COS-7; read-out: Efficacy (%) at 10 µmol/L PPARβ/δ
# Experimental: Transfections were stopped after 16 h by adding DMEM/10% FCS. Cells were detached with trypsin, re-seeded in 96-well plates for 6 h in DMEM/10% FCS, and incubated for 24 h in DMEM/0.2% FCS with increasing concentrations of the test compounds or vehicle (DMSO, 0.1% final concentration). At the end of the experiment, cells were washed once with ice-cold PBS, lysed, and luciferase and β-galactosidase activities were measured. […]
Threshold rule: Emax at 10 µM greater than or equal to 30% is TRUE; below that, FALSE.

[in] Test whether the compound C/C(=C\CC1Cc2cc(OCc3ccccc3)ccc2N(C)C1C)CCC(=O)O (centres unmarked) records Emax at 10 µM of 30% or higher.
[out] TRUE

[in] Test whether the compound CCOC(=O)CC/C(C)=C/Cc1cc2cc(OCc3ccccc3)ccc2nc1C records Emax at 10 µM of 30% or higher.
[out] FALSE
